These data points were gathered from patent US10428017B2.

Reported values of Emax for individual entries
target: F508delCFTR (Homo sapiens, UniProt P13569, DEL508-508); construct: expressed in transfected cells; host or cells: CFBE4lo-F508delCFTR-HRP cells (human lung derived epithelial cell line, doxycycline-inducible); experiment: Cell Surface Expression-Horse Radish Peroxidase (CSE-HRP) Assay; assay type: cell-based; conditions: test compound without co-corrector; maximum at any tested concentration (up to 20 μM), normalized to on-plate positive control (2 μM co-corrector)
Sequence (P13569 with tags, fused parts or gaps DEL508-508): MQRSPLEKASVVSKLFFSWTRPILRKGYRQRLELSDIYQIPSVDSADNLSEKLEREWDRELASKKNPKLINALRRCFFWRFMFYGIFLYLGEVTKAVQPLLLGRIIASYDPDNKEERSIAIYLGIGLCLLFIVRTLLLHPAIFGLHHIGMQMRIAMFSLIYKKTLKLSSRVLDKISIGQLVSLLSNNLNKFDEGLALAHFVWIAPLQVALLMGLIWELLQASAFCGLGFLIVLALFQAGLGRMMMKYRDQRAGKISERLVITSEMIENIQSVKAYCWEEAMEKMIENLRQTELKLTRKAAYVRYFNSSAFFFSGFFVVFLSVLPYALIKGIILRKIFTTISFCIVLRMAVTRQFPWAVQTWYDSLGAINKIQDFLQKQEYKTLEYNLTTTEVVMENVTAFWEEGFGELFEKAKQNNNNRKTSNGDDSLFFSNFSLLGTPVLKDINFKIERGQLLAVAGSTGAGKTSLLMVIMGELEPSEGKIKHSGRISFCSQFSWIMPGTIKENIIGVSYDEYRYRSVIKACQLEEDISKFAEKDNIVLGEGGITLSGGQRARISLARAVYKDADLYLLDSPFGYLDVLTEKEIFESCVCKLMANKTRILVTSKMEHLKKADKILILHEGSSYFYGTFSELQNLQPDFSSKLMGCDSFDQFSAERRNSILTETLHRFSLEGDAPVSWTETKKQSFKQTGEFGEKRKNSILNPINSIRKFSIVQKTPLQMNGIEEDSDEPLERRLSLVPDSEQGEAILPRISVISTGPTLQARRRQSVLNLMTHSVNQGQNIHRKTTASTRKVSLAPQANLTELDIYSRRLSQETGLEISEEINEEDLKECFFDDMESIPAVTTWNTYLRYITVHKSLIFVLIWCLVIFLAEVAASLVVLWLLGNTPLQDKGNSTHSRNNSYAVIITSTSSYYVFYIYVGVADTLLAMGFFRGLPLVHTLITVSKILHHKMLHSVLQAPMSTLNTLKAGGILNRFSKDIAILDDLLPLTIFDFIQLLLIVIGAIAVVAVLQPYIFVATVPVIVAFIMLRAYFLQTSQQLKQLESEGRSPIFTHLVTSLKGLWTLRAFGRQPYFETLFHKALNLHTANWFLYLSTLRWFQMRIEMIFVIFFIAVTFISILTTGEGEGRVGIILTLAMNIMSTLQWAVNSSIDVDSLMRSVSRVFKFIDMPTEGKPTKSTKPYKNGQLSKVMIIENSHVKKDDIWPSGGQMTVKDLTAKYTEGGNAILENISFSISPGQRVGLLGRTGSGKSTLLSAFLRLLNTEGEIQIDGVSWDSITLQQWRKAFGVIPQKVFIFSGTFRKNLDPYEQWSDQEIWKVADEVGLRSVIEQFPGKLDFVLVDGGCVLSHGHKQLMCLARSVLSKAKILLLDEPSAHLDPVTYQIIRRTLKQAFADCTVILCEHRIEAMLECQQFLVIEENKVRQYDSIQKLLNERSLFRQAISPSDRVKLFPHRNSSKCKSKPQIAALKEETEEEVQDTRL
endpoint_name: Emax

{"columns": ["compound", "endpoint_name", "result"],
 "data": [
  ["COc1ccc(C(F)(F)F)c2c1[C@@H](C(=O)NS(=O)(=O)c1cccc3ccccc13)CCO2 [Example 57]", "Emax", "≥ 150%"],
  ["Cc1ccccc1S(=O)(=O)NC(=O)C1(C)Cc2ccccc2O1 (centres unmarked) [Example 16]", "Emax", "< 50%"],
  ["COc1ccc(C2CCC2)c2c1[C@H](C(=O)NS(=O)(=O)c1cccc3c1NCCC3)CO2 [Example 99]", "Emax", "≥ 150%"],
  ["COc1ccc(Br)c2c1C(C(=O)NS(=O)(=O)c1cccc3ccccc13)CC(C)(C)O2 (centres unmarked) [Example 52]", "Emax", "≥ 150%"],
  ["Cc1ccccc1S(=O)(=O)NC(=O)C1COc2ccccc21 (centres unmarked) [Example 29]", "Emax", "< 50%"],
  ["COc1ccc(C(F)(F)F)c2c1[C@H](C(=O)NS(=O)(=O)c1cccc3ccccc13)CCO2 [Example 58]", "Emax", "≥ 150%"],
  ["COc1ccc(C2CCC2)c2c1[C@H](C(=O)NS(=O)(=O)c1cccc3ncccc13)CO2 (single isomer, unassigned) [Example 83]", "Emax", "≥ 150%"],
  ["COc1cccc2c1C(C(=O)NS(=O)(=O)c1cccc3cccnc13)CC(C)(C)O2 (centres unmarked) [Example 47]", "Emax", "< 50%"],
  ["COc1cccc2c1OCC2C(=O)NS(=O)(=O)c1cccc2ccccc12 (centres unmarked) [Example 25]", "Emax", "< 50%"],
  ["COc1ccc(Br)c2c1[C@@H](C(=O)NS(=O)(=O)c1cccc3ccccc13)CCO2 [Example 35]", "Emax", "50 to 150%"],
  ["COc1ccc(Br)c2c1OCC2C(=O)NS(=O)(=O)c1cccc2ccccc12 (centres unmarked) [Example 37]", "Emax", "≥ 150%"],
  ["COc1ccc(Br)c2c1C(C(=O)NS(=O)(=O)c1cccc3ncccc13)CC(C)(C)O2 (centres unmarked) [Example 46]", "Emax", "≥ 150%"],
  ["CCC1(C(=O)NS(=O)(=O)c2cccc3ccccc23)COc2cccc(OC)c21 (centres unmarked) [Example 8]", "Emax", "≥ 150%"],
  ["COc1ccc(C2CCC2)c2c1[C@@H](C(=O)NS(=O)(=O)c1cccc3nc(C)ccc13)CCO2 [Example 76]", "Emax", "≥ 150%"],
  ["Cc1ccc2c(c1)C(C(=O)NS(=O)(=O)c1cccc3ccccc13)(c1ccccc1)CCO2 (centres unmarked) [Example 18]", "Emax", "50 to 150%"],
  ["COc1ccc(C2CC2)c2c1C(C(=O)NS(=O)(=O)c1cccc3ccccc13)CCO2 (centres unmarked) [Example 64]", "Emax", "≥ 150%"],
  ["CCC1(C(=O)NS(=O)(=O)c2cccc3ccccc23)COc2c(C(F)(F)F)cccc21 (centres unmarked) [Example 61]", "Emax", "≥ 150%"],
  ["O=C(NS(=O)(=O)c1cccc2ccccc12)C1COc2c(Cl)cccc21 (centres unmarked) [Example 43]", "Emax", "< 50%"],
  ["COc1ccc(C(F)(F)F)c2c1C(C(=O)NS(=O)(=O)c1cccc3ccccc13)CCO2 (centres unmarked) [Example 53]", "Emax", "≥ 150%"],
  ["O=C(NS(=O)(=O)c1cccc2ccccc12)C1COc2ccccc21 (centres unmarked) [Example 34]", "Emax", "< 50%"],
  ["C[C@]1(C(=O)NS(=O)(=O)c2cccc3ccccc23)COc2cc3c(cc21)OC(F)(F)O3 [Example 33]", "Emax", "< 50%"],
  ["COc1ccc(C2CCC2)c2c1[C@H](C(=O)NS(=O)(=O)c1cccc3ncccc13)CC(C)(C)O2 [Example 86]", "Emax", "≥ 150%"],
  ["COc1ccc(C2CCC2)c2c1[C@H](C(=O)NS(=O)(=O)c1cccc3c1CCCN3)CC(C)(C)O2 (single isomer, unassigned) [Example 97]", "Emax", "≥ 150%"],
  ["COc1ccc(C2CCC2)c2c1OCC[C@H]2C(=O)NS(=O)(=O)c1cccc2ncccc12 (single isomer, unassigned) [Example 106]", "Emax", "≥ 150%"],
  ["COc1ccc(Br)c2c1[C@@H](C(=O)NS(=O)(=O)c1cccc3ncccc13)CC(C)(C)O2 [Example 71]", "Emax", "≥ 150%"],
  ["COc1ccc(C2CCC2)c2c1[C@@H](C(=O)NS(=O)(=O)c1cccc3ncccc13)CCO2 [Example 59]", "Emax", "≥ 150%"]
]}
